molecular target: Alpha-1B adrenergic receptor (Homo sapiens, UniProt P35368); assay: Compound was tested for the tissue binding affinity using [125I]- HEAT as radioligand to the human aorta Alpha-1B adrenergic receptor; format: tissue-based
Sequence (P35368 whole entry): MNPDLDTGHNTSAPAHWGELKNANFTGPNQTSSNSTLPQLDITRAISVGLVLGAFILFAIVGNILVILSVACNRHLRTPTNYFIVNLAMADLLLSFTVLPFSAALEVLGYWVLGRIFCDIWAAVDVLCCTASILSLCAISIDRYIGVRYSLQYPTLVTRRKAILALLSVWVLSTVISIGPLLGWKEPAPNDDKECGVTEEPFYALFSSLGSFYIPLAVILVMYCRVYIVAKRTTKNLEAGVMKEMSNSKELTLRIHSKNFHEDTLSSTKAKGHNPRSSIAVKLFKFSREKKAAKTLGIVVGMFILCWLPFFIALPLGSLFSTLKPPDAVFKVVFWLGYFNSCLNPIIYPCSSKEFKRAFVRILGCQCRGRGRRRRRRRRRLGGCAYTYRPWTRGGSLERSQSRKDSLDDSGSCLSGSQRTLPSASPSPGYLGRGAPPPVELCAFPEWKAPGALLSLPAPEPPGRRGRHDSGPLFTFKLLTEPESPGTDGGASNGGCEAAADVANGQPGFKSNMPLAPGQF
Observable: IC50 (µM)
Please state the figure in µM; there is no need to write the unit.

Asked: Need IC50 of COc1cc2nc(N3CCN(C(=O)OCc4ccccc4)[C@H](C(=O)NC(C)(C)C)C3)nc(N)c2cc1OC , thanks.
Given back: 5.8

====

target: UniProt:P35368; assay: Compound was tested for binding affinity utilizing cloned receptor binding assays by using [125 I]HEAT as radioligand to the human Alpha-1B adrenergic receptor
pKi values, listed per item
The meaning of pKi here: minus log10 of the concentration in molar units.

Asked: For the molecule COc1cc2nc(N3CCN(C(=O)c4ccco4)[C@H](C(=O)NC(C)(C)C)C3)nc(N)c2cc1OC , what pKi is on record?
Given back: 8.46

Asked: Check COc1cc2nc(N3CCN[C@H](C(=O)NC(C)(C)C)C3)nc(N)c2cc1OC too.
Given back: 7.60
